Taken from patent US10654847B2.

- target-under-test: mAChR M1 (UniProt P11229)
- assay-text: mAChR M1 cell-based functional assay (calcium mobilization, potentiation of EC20 acetylcholine response)
- run-parameters: % ACh maximum at 30 μM; mAChR M1-expressing CHO-K1 cells, calcium flux
Binary call on Emax (%) with cut-off 60%: strictly below means YES, and equality or higher means NO.

# count of solved cases: 6
O=C1c2cccnc2CN1Cc1ccc(-c2cccc3ncccc23)cc1F	YES
O=C1c2cccnc2CN1Cc1c(F)cc(-c2cccc3cnccc23)cc1F	YES
Cn1cc2ccc(-c3ccc(F)c(CN4Cc5ncccc5C4=O)c3)cc2n1	YES
Cn1cc2ccc(-c3ccc(CN4Cc5ncccc5C4=O)c(F)c3)cc2n1	NO
O=C1c2cccnc2CN1Cc1ccc(-c2ccc(Cl)nc2)cc1F	YES
O=C1c2cccnc2CN1Cc1c(F)cc(-c2cccc3nccn23)cc1F	YES

Report whether reported Emax (%) is lower than 60% (strictly) for "Cn1ccc2cc(-c3ccc(CN4Cc5ncccc5C4=O)c(F)c3)ccc21" YES

Report whether reported Emax (%) is lower than 60% (strictly) for "Cn1ccc2ccc(-c3ccc(CN4Cc5ccccc5C4=O)c(F)c3)cc21" NO

Report whether reported Emax (%) is lower than 60% (strictly) for "Cc1nc(-c2ccc(CN3Cc4ccccc4S3(=O)=O)cc2)no1" YES

Report whether reported Emax (%) is lower than 60% (strictly) for "Cc1noc(-c2ccc(CN3Cc4ccccc4S3(=O)=O)cc2)n1" YES

Report whether reported Emax (%) is lower than 60% (strictly) for "Cn1cc2c(-c3ccc(CN4Cc5cccnc5C4=O)c(F)c3)cccc2n1" NO

Report whether reported Emax (%) is lower than 60% (strictly) for "COc1ccc(-c2ccc(CN3Cc4ncccc4C3=O)c(F)c2)cc1" YES

Report whether reported Emax (%) is lower than 60% (strictly) for "Cc1cc(-c2ccc(CN3Cc4ncccc4C3=O)c(F)c2)cnc1F" YES

Report whether reported Emax (%) is lower than 60% (strictly) for "Cn1cc2c(-c3cc(F)c(CN4Cc5ncccc5C4=O)c(F)c3)cccc2n1" NO

Report whether reported Emax (%) is lower than 60% (strictly) for "Cc1cc(-c2cccnc2)ccc1CN1Cc2cccnc2C1=O" YES

Report whether reported Emax (%) is lower than 60% (strictly) for "Cn1cc2cc(-c3cccc(CN4Cc5ncccc5C4=O)c3F)ccc2n1" YES

Report whether reported Emax (%) is lower than 60% (strictly) for "Cn1cc2cc(-c3ccc(CN4Cc5cccnc5C4=O)c(F)c3)ccc2n1" NO

Report whether reported Emax (%) is lower than 60% (strictly) for "O=C1c2ncccc2CN1Cc1ccc(-c2cccnc2)cc1Cl" YES

Report whether reported Emax (%) is lower than 60% (strictly) for "Cc1nc(-c2ccc(CN3Cc4ccccc4S3(=O)=O)cc2)cs1" YES
